# subjectOfTest: NUDT7 (Homo sapiens)
# Construct: residues 14-235, E. coli, pNIC28-Bsa4, N-terminal His6 tag removed by TEV, construct 26672 Da
# Sequence (P0C024 14-235): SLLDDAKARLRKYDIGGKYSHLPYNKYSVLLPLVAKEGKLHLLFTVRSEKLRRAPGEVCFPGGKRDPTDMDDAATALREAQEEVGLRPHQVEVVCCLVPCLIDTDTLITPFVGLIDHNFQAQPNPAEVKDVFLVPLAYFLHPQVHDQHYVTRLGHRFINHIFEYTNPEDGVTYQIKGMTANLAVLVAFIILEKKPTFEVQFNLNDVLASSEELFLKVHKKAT
# Set-up: Intact protein LC/MS covalent labelling, fragments in pools of five, 200 uM each, 4 °C
# reportedConditions: 24 h, 4 °C, pool of five; 200 µM; covalent
readoutType: NUDT7

compound | readoutType | assayResult
O=C(CCl)N1CCC(c2ccccc2)=N1 | NUDT7 | 0
CC1CCCC(NC(=O)NC(=O)CCl)C1C (stereo not shown) | NUDT7 | 0
Cl.O=C(CCl)N1CCN(CC(=O)N2CCCC2)CC1 | NUDT7 | 0
O=C(CCl)NC(=O)CN1CCCC1=O | NUDT7 | 0
CC(C)c1nnc(NC(=O)CCl)s1 | NUDT7 | 0.04
CC(C)(C)C(=O)NC(=O)CCl | NUDT7 | 0
C=CC(=O)Nc1ccc(OC)cc1 | NUDT7 | 0
COc1ccc(Cl)cc1C(=O)NNC(=O)CCl | NUDT7 | 0.1
CN(C)C(=O)CN(C)C(=O)CCl | NUDT7 | 0
CN(Cc1ccsc1)C(=O)CCl | NUDT7 | 0.09
CC1(C)CCCN1C(=O)CCl | NUDT7 | 0
C=CC(=O)N1CCC(NC(=O)c2ccncc2)CC1 | NUDT7 | 0
N#CC(c1cccs1)N1CCN(C(=O)CCl)CC1 (stereo not shown) | NUDT7 | 0
O=C(CCl)Nc1nc(-c2cc(F)ccc2F)cs1 | NUDT7 | 0.53
N#CC1(NC(=O)CCl)CCC1 | NUDT7 | 0.09
C=CC(=O)NC1CCOC2(CCS(=O)(=O)C2)C1 (stereo not shown) | NUDT7 | 0
O=C(CCl)NC1CCN(C(=O)c2ccco2)CC1 | NUDT7 | 0
C=CC(=O)N1CCCc2[nH]c3ccc(F)cc3c2C1 | NUDT7 | 0
O=C(CCl)NCc1ccc2c(c1)OCO2 | NUDT7 | 0

* * *

Below, each entry is listed alongside its reported viability at 48 h, 10 µM.
# procedureText: in vitro
# Set-up: species or system HB2, CCD841
# reportedConditions: human, hek293 cells
readoutType: viability at 48 h, 10 µM (%)

compound | readingUnit | assayResult
CC(C)N(CC(F)(F)F)C(=O)CCl [PCM-0102516] | % | 106
O=C(CCl)NNC(=O)c1ccc(Cl)cc1 [PCM-0102953] | % | 82.8
CC(C)c1ccc(NC(=O)CCl)cc1 [PCM-0102532] | % | 7.1
C=CC(=O)Nc1ccc(OC)c(F)c1 [PCM-0102995] | % | 80.5
CN(CC(=O)NC(C)(C)C)C(=O)CCl [PCM-0102259] | % | 69
CC(c1ccccc1)N1CCN(C(=O)CCl)CC1.Cl (stereo not shown) [PCM-0102710] | % | 41.3
CC(=O)Nc1cccc(NC(=O)CCl)c1 [PCM-0102172] | % | 4.7

* * *

# procedureText: in vitro
# Design: species or system CCD841, HEK293
# reportedConditions: human, hb2 cells, read-out: HB-2 Cells Viability (%)

compound | viability at 48 h, 10 µM
C=CC(=O)N1CC(c2ccccc2)C2COCCC21 (centres unmarked) [PCM-0102687] | 103%
C=CC(=O)NC1CCC2(CC1)OCCO2 [PCM-0102564] | 109%
O=C(CCl)N(c1ccccc1)C1CCS(=O)(=O)C1 (centres unmarked) [PCM-0102755] | 28.5%
C=CC(=O)NCC1CCOCO1 (centres unmarked) [PCM-0102648] | 102%
C=CC(=O)N1CCCC(c2nc3c(s2)CCCC3)C1 (centres unmarked) [PCM-0103069] | 98.5%
O=C(CCl)NNC(=O)C1COc2ccccc2O1 (centres unmarked) [PCM-0102384] | 86.6%
CC1CCN(C(=O)CCl)CC1 [PCM-0102945] | 103%
C=CC(=O)N1CCN(C(=O)C23CC4CC(CC(C4)C2)C3)CC1 [PCM-0102682] | 102%
C=CC(=O)N1CCN(c2ccnc(-c3ccccc3)n2)CC1 [PCM-0102515] | 88.8%
COc1ccc(C(=O)NC(=O)CCl)cc1 [PCM-0102454] | 97.1%
O=C(CCl)Nc1ccc(Br)cn1 [PCM-0102227] | 84.3%
CCN(C(=O)CCl)c1nc2ccccc2s1 [PCM-0102186] | 69.7%
O=C(CCl)N1CCOCC1C1CC1 (centres unmarked) [PCM-0102870] | 80.6%
Cl.O=C(CCl)N1CCN(Cc2cccs2)CC1 [PCM-0102243] | 45.7%
CC(NC(=O)CCl)c1ccccc1 (centres unmarked) [PCM-0102128] | 84.4%
O=C(CCl)NC1(c2ccccc2)CCC1 [PCM-0102935] | 81.5%
CN(Cc1ccc(F)cc1)C(=O)CCl [PCM-0102939] | 34.8%
O=C(CCl)NC(=O)Nc1ccccc1F [PCM-0102376] | 63.5%
C=CC(=O)N1CCC(n2ccc(C(F)(F)F)n2)CC1 [PCM-0102435] | 96.3%
C=CC(=O)N1CCCC(c2nc(C(F)(F)F)cn2C)C1 (centres unmarked) [PCM-0102633] | 99.9%
O=C(CCl)NNC(=O)c1ccccc1 [PCM-0102240] | 98.1%
C=CC(=O)NCC1=CCCCC1 [PCM-0102726] | 105%
CN(Cc1ccc(Cl)c(Cl)c1)C(=O)CCl [PCM-0102349] | 1.7%
